We begin with a simple list: items and their reported log2 fold change of degron read counts.
# target: T1, CRBN, Q96SW2;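 note: pooled lentiviral library of zinc finger degron-EGFP fusions in mCherry-positive Jurkat cells, FACS-sorted after compound exposure, with degron abundance counted by next-generation sequencing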
# T1 chain: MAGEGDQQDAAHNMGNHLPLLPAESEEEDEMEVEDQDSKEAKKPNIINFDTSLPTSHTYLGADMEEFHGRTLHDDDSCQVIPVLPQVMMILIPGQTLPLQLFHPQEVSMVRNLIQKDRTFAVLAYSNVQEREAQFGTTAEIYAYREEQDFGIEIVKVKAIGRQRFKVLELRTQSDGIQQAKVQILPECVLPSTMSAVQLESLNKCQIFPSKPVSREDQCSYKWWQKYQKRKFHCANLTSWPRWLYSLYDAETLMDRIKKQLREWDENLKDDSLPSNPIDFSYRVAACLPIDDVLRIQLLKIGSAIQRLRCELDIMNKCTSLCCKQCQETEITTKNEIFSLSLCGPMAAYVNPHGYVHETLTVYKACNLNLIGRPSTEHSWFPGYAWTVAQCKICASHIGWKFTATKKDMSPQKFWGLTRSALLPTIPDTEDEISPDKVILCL
# experimental_details: log2 fold change of degron read counts, EGFP-low vs EGFP+ sorted cells (limma voom), compound-induced degradation; higher = more compound-induced degradation of the degron-EGFP fusion; degrons are variants of IKZF1/3 zinc finger 2; compound dose not given here
# setup_conditions: Jurkat; 18 h; compound: thalidomide
In all, about 8,300 sequences were measured (“log2 fold change of degron read counts, EGFP-low vs EGFP+ sorted cells (limma voom), compound-induced degradation”: median about -1.1, highest 2% from about 3.2 on). The entries come from a sample that favours the highest values as a whole.
Give a plain numeric answer without units written out.

- entry_sequence: "LYCPICGFRCTQKGNLLRHIKL [46L_47Y_49P_50I_52G_53F_54R_55C_67L_, Q9UKT9]"
  readout_label: "log2 fold change of degron read counts"
  reported: 1.15
- entry_sequence: "LRCPICGFHCTQKGNLLRHIKL [46L_47R_49P_50I_52G_53F_54H_55C_67L_, Q9UKT9]"
  readout_label: "log2 fold change of degron read counts"
  reported: 2.32
- entry_sequence: "LSCPICGFICTQKGNLLRHIKL [46L_47S_49P_50I_52G_53F_54I_55C_67L_, Q9UKT9]"
  readout_label: "log2 fold change of degron read counts"
  reported: 0.848
- entry_sequence: "FSCPVCGAVFTQKGNLLRHIKL [46F_47S_49P_50V_52G_53A_54V_55F_67L_, Q9UKT9]"
  readout_label: "log2 fold change of degron read counts"
  reported: 1.39
- entry_sequence: "FHCPQCGAWFTQKGNLLRHIKL [46F_47H_49P_50Q_52G_53A_54W_55F_67L_, Q9UKT9]"
  readout_label: "log2 fold change of degron read counts"
  reported: -2.14

Please find the next sequence below.
**Query** Would you kindly share the measured log2 fold change of degron read counts for FLCDVCGAYFTQKGNLLRHIKL [46F_47L_49D_50V_52G_53A_54Y_55F_67L_, Q9UKT9] ?
**Result** -1.52
